Origin of measurements: PubChem BioAssay (NCI)

System: K-562 leukemia
measurement.protocol: NCI-60 one-dose screen, 48 h (100 = growth as untreated, 0 = no growth, -100 = all killed)
condition.details: 10 µM unless noted
The panel holds about 83,000 compounds, 20% with a hit somewhere; the sample as a whole holds those more often.
# MET = growth below 30% (exclusive); NOT MET = growth at/above 30%

* O=C1C=CC2(NN=C(c3ccccc3)N2c2ccc(Cl)cc2)c2cccc(O)c21 (stereo not given) | MET
* CNC(=O)c1cc(Oc2ccc(NC(=O)Nc3ccc(Cl)c(C(F)(F)F)c3)c(F)c2)ccn1 | MET
* CCCCCCCC(=O)SCC/C=C/[C@@H]1CC(=O)NCc2cccc(n2)C2=N[C@@](C)(CS2)C(=O)N[C@@H](C(C)C)C(=O)N1 | MET
* CCOC(=O)c1sc(NC(=O)COc2ccc(/C=C3\Cc4ccc(Cl)cc4C3=O)cc2)nc1C | NOT MET
* COc1cc2c(Nc3ccc(Br)cc3F)ncnc2cc1OCC1CCN(C)CC1 | MET
* CN1CCN(c2nc(C3=C(c4c[nH]c5ccccc45)C(=O)NC3=O)c3ccccc3n2)CC1 | NOT MET
* O=C(Cn1c(=O)ccn(CCCCCCCCOc2ccc(Br)cc2)c1=O)Nc1ccc(Oc2ccc(Cl)cc2)cc1 | NOT MET
* COc1cc2nccc(Oc3ccc(NC(=O)C4(C(=O)Nc5ccc(F)cc5)CC4)cc3)c2cc1OC | MET

input: Does the reported growth of C#Cc1cccc(Nc2ncnc3cc(OC)c(OCCCCCCC(=O)NO)cc23)c1 stay below 30%?
output: MET

input: Does the reported growth of CC(=O)OC1Oc2ccccc2-c2oc(=O)c(-c3cc4ccc(N(C)C)cc4oc3=O)cc21 (stereo not given) stay below 30%?
output: MET

###

System: HOP-62 NSCLC
measurement.protocol: NCI-60 one-dose screen, 48 h (100 = growth as untreated, 0 = no growth, -100 = all killed)
condition.details: 10 µM unless noted
Protocol: Growth inhibition of the HOP-62 human Non-Small Cell Lung tumor cell line is measured as a screen for anti-cancer activity. Cells are grown in 96 well plates and exposed to the test compound for 48 hours. Compounds are tested at a single concentration, which is 10^-5 M for most compounds. The reported endpoint is percent growth (GI% or GIPRCNT), where numbers from 0 - 100% represent growth inhibition, and numbers from -100% - 0 represent cell death. […]
The panel holds about 83,000 compounds, 20% with a hit somewhere; the sample as a whole holds those more often.
Assignment: determine reported growth for the given molecules.
Numbers only, in %.

Worked examples, 2 molecules total:
- CN1CCC(CNc2ccc3ncc(-c4cccc(OC(F)(F)F)c4)n3n2)CC1: -53.1
- CN(C[C@@H]1COCCO1)S(=O)(=O)Nc1ccc2ccc3ncc(-c4cnn(C)c4)cc3c(=O)c2c1: 36.4

Now, please, on to the next molecule.
input: Reported growth, molecule O=C1CC(c2cccc(F)c2)c2c(n[nH]c2-c2ccc(Cl)cc2)N1 (stereo not drawn) : ____
output: 65.7

###

Tested on: RPMI-8226 leukemia
measurement.protocol: NCI-60 one-dose screen, 48 h (100 = growth as untreated, 0 = no growth, -100 = all killed)
condition.details: 10 µM unless noted
Compounds without any hit were thinned out: in the full panel of roughly 83,000, 20% have a hit.
Measured growth determines class: 0 = under 20%, 1 = from 20% up to 50%, 2 = 50% and over

// known answers, use as guide
- CC1(C)NC(=O)c2[nH]c3c(Cl)c(Cl)ccc3c2C1C#N (stereo not given): 2
- O=C1C=CC2(NN=C(c3ccccc3)N2c2cccc(Cl)c2)C(Cl)=C1 (stereo not given): 2
- COc1cc(N2CCC(N3CCN(C)CC3)CC2)ccc1Nc1ncnc(Nc2ccccc2S(=O)(=O)C(C)C)n1: 2
- COC(=O)[C@@H](OC)[C@@H]1Cc2cc3cc(OC4CC(OC5CC(O)C(O)C(C)O5)C(O)C(C)O4)c(C)c(O)c3c(O)c2C(=O)[C@H]1OC1CC(OC2CC(OC3CC(C)(O)C(O)C(C)O3)C(O)C(C)O2)C(O)C(C)O1 (stereo not given in full): 0
- Cc1cc(Nc2cc(N3CCN(C)CC3)nc(Sc3ccc(NC(=O)C4CC4)cc3)n2)n[nH]1: 1
- CC[C@H](CO)Nc1nc(NCc2ccccc2)c2ncn(C(C)C)c2n1: 2
- Cc1ccc(C(=O)Nc2ccc(CN3CCN(C)CC3)c(C(F)(F)F)c2)cc1C#Cc1cnc2cccnn12: 0
- CC(C)[C@@H]1CC[C@@H]2[C@@H]1[C@H](OC(=O)/C=C/c1ccccc1)[C@]1(C(C)C)C[C@@H](OC(=O)CO)[C@@]2(C)O1: 2

input: Into which bin does this molecule go? Cn1cc(-c2cnn3c(N)c(Br)c([C@@H]4CCCNC4)nc23)cn1
output: 1

input: Into which bin does this molecule go? C=CC(=O)N(C)[C@H]1C[C@H]2OC(C)(C1OC)n1c3ccccc3c3c4c(c5c6ccccc6n2c5c31)C(=O)NC4 (stereo not given in full)
output: 0

input: Into which bin does this molecule go? Cn1cc(-c2[nH]c3cc(NC(=O)[C@H](N)C4CCCCC4)cc4c3c2C=NNC4=O)cn1
output: 0

input: Into which bin does this molecule go? COc1cnc2c(c1)C(=O)c1c-2n(CCCN2CCOCC2)c(=O)c2cc(Cl)ccc12
output: 0
